Reference source: patent US10808005B2

Biological target: Nur77-LBD (Homo sapiens, UniProt P22736)
Sequence (P22736 360-595 limits assumed): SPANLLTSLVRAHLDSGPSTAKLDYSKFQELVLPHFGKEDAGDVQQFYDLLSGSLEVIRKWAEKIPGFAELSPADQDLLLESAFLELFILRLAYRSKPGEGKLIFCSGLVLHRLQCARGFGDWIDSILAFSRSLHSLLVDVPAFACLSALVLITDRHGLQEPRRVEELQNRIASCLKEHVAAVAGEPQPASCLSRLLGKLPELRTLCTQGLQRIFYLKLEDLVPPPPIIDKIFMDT
Test: Surface plasmon resonance (Biacore T200) binding to Nur77-LBD
Overview of recorded Kd for various compounds
Your answer is read as µM, so omit the unit and give the number.

compound: CCOP(=O)(OCC)OC(=O)[C@]1(C)CC[C@]2(C)CC[C@]3(C)C4=CC=C5C(=CC(=O)C(O)=C5C)[C@]4(C)CC[C@@]3(C)[C@@H]2C1 [XS0491]
Kd / µM: 0.336
//
compound: [2H]C1C=C2[C@@](C)(CC[C@@]3(C)[C@@H]4C[C@](C)(C(=O)O)CC[C@]4(C)CC[C@]23C)c2cc(O)c(O)c(C)c21 (stereo partly drawn) [XS0474]
Kd / µM: 2.6

Moving on to the next compound.
Exam item: Specify Kd for Cc1c(O)c(O)cc2c1CC=C1[C@@]2(C)CC[C@@]2(C)[C@@H]3C[C@](C)(C(=O)O)CC[C@]3(C)CC[C@]12C [XS0419] and stop.
Marked response: 0.404

----------
Biological target: Nur77-LBD (Homo sapiens, UniProt P22736)
Test: Surface plasmon resonance (Biacore T200) binding to Nur77-LBD
Conditions: Biacore T200; read-out: dissociation constant (Kd) to Nur77-LBD
Measured Kd by item
Reply with the number and its unit after it.

Worked examples follow.
smiles_repr: CCCC(=O)OC1=C(C)C2=CC=C3[C@@](C)(CC[C@@]4(C)[C@@H]5C[C@](C)(C(=O)OC)CC[C@]5(C)CC[C@]34C)C2=CC1=O
study_target: Nur77-LBD (Homo sapiens, UniProt P22736)
Kd: 1280 nM
--
smiles_repr: CCOC(=O)COC(=O)[C@]1(C)CC[C@]2(C)CC[C@]3(C)C4=CC=C5C(=CC(=O)C(O)=C5C)[C@]4(C)CC[C@@]3(C)[C@@H]2C1
study_target: Nur77-LBD (Homo sapiens, UniProt P22736)
Kd: 3670 nM
--
smiles_repr: CC1=C(O)C(=O)C=C2C1=CC=C1[C@@]2(C)CC[C@@]2(C)[C@@H]3C[C@](C)(C(=O)OP(=O)(OC(C)C)OC(C)C)CC[C@]3(C)CC[C@]12C
study_target: Nur77-LBD (Homo sapiens, UniProt P22736)
Kd: 1300 nM

Attention now shifts to the item below.
Exam item: Specify the recorded Kd for `CCOC(=O)OC1=C(C)C2=CC=C3[C@@](C)(CC[C@@]4(C)[C@@H]5C[C@](C)(C(=O)O)CC[C@]5(C)CC[C@]34C)C2=CC1=O` , system: Nur77-LBD (Homo sapiens, UniProt P22736).
Marked response: 1260 nM
